Source: patent US20260258115A1

Target: T1, RSV postfusion F, subtype B (postF trimer) (Respiratory syncytial virus subtype B, UniProt P13843 26-513)
T1 construct: also called Postfusion subtype B
Experiment: BLI, IgG apparent affinity
quantity_measured: binding result

binder="ADI-21072 (antibody, V domains shown) VH: QVQLVQSGGGLVKPGGSLRLSCEASGFNFRSYHMSWVRQAPGKGLEWVSSITAGSSYINYADSVKGRFTISRDNAKNSVFLQMNSLSAEDTAVYYCAREGLNMGVGGTWFDPWGQGTLVTVSS VL: QAVVTQEPSVSGAPGQRVTISCTGSSSNIGAGYDVHWYQQLPGTAPKLLIYGNNNRPSGVPDRFSGSKSATSASLAITGLQADDEADYYCQSYDRSLSGSWVFGTGTKVTVL" result="no binding"
binder="ADI-21075 (antibody, V domains shown, also called Ab 320) VH: EVQLVESGGGLVKPGGSLRLSCAASGFSFSNYYMSWVRQAPGKGLEWISYISGGSTYANLADSVKGRFTISRDNTKNSMYLQMTSLRPDDTAVYYCARIHGTHGPFYFDYWGQGTLVTVSS VL: QSVLTQPPSVSGAPGQRVTISCTGSSSNIGAGYDVHWYQQLPGTAPKLLIHANSNRPSGVPDRFSGSKSGTSASLAITGLQAEDEADYYCQSYDNSLNAYYVFGTGTKLTVL" result="no binding"
binder="ADI-21079 (antibody, V domains shown) VH: EVQLLESGGGLVKPGGSLRLSCAASGFTFSDYYMSWIRQAPGKGLEWVSNISGGSTYTNYADSVKGRFTISRDNAKNSLYLQMNSLRAEDTAVYYCAREAYGSGNYYNPNWLDPWGQGTLVTVSS VL: QSVLTQPPSVSGAPGQRVTISCTGSSSNIGAGYDVHWYQQLPGTAPKLLIYGNRNRPSGVPDRFSGSKSGTSASLAITGLQAEDEADYYCQSYDSSLSGSVFGGGTKLTVL" result="no binding"
